# System: FGFR1;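 further: KINOMEscan kinase panel screen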
# experimental parameters: concentration: 1 μM, replicates: in singlicate; n = 1
# Lookup of reported %Inh keyed by entry
Response body: numeric value in %, unit text excluded.

compound | assay system | output unit | %Inh
CN(C1=C(c2ccccc2)C(=O)NC1=O)c1ccccc1 | FGFR1 | % | 0
c1ccc(-c2n[nH]cc2-c2ccnc3ccccc23)nc1 | FGFR1 | % | 6
Cc1cccc(-c2nc(Nc3ccc4ncsc4c3)c3ccccc3n2)n1 | FGFR1 | % | 0
Cc1nnc(-c2ccc(C)c(-c3ccc(C(=O)Nc4ccc(NS(C)(=O)=O)cc4)cc3)c2)o1 | FGFR1 | % | 0
Cn1ccc2ncnc(Oc3ccc(NC(=O)Nc4ccncc4)c(Cl)c3)c21 | FGFR1 | % | 0

Continue with the next compound.
Ask: Item COc1ccc(Nc2nccc(N3CCC(NC(=O)Nc4cccc(C(C)=O)c4)C3)n2)cc1 (stereo not drawn) has what recorded %Inh?
Reply: 3
